All values here come from PubChem BioAssay (NCI).

Tested on: HCT-116 colon
test.summary: NCI tumour cell line growth inhibition, 48 h
readout.label: TGI

compound	assay.target	TGI
CC(C)(CO)CNC(=O)c1ccc2[nH]c(O)c(N=Nc3ccc(S(N)(=O)=O)cc3)c2c1	HCT-116 colon	> 25 µM
CC(=O)O[C@@H](c1nccn1Cc1ccccc1)[C@H]1OC(C)(C)O[C@@H]1[C@H]1COC(C)(C)O1	HCT-116 colon	> 100 µM
O=c1cc(O)cc2n1CCC2	HCT-116 colon	> 100 µM
O=C(CC(NC(=O)C(F)(F)F)C(=O)O)OCc1ccccc1 (stereo unspecified)	HCT-116 colon	> 100 µM
N#CNC(N)=NCc1ccccc1	HCT-116 colon	> 100 µM

Give TGI for the following compound: COc1cc2ccc3c4cc(OC)c(OC)cc4c[n+](C)c3c2cc1O
> 100 µM

Give TGI for the following compound: O=C(/C=C/c1ccc(Cl)cc1)Oc1ccc(C=C2CCC/C(=C\c3ccc(OC(=O)/C=C/c4ccc(Cl)cc4)cc3)C2=O)cc1
> 100 µM

Give TGI for the following compound: COC(=O)CCC(NC(=S)N/N=C/c1cccs1)C(=O)OC (stereo unspecified)
> 100 µM

Give TGI for the following compound: CCCCCCCC(=O)OCC(COC(=O)C(C)(C)C)OC(=O)Cc1ccccc1 (stereo unspecified)
> 100 µM

Give TGI for the following compound: COC1OC(C)C(NC(=O)OCC(Cl)(Cl)Cl)C2OC(C)(C)OC12 (stereo unspecified)
> 100 µM

Give TGI for the following compound: COc1ccc(OC)c(/C=C/c2nc(=S)n(-c3ccc(Cl)cc3)[nH]2)c1
> 100 µM

Give TGI for the following compound: NCCN1CCCCCc2ccccc21
> 10 µM

Give TGI for the following compound: Cc1c(C(=N)C(C#N)C#N)c(=N)oc2c1ccc1ccccc12
> 100 µM

Give TGI for the following compound: Clc1cccc(-c2sc(-c3cccs3)cc2Cc2cccs2)c1
> 10 µM

Give TGI for the following compound: CCOC(=O)c1c(N2CCCC2)[nH]c(=O)c(C(c2ccc(OC)cc2)c2c(O)c(C(=O)OCC)c(N3CCCC3)[nH]c2=O)c1O
> 100 µM

Give TGI for the following compound: O=C(NCc1ccccc1)c1cc2ccccc2oc1=Nc1cccc(C(F)(F)F)c1
> 100 µM

Give TGI for the following compound: CC(=O)O[C@H]1C(=O)[C@@]2(C)C([C@H](OC(=O)c3ccccc3)[C@]3(O)C[C@H](OC(=O)[C@H](O)[C@@H](NC(=O)c4ccccc4)c4ccccc4)C(C)=C1C3(C)C)[C@]1(OC(C)=O)CO[C@@H]1C[C@@H]2O (stereo partly specified)
> 50 µM

* * *

System: TK-10 renal
test.summary: NCI tumour cell line growth inhibition, 48 h
readout.label: TGI

>>> df
                                   compound  readout_label  endpoint_value
0  Cc1ccc2c(-c3ccnc(Nc4ccc5c(c4)OCCO5)n3)c(-c3ccc(C(F)(F)F)cc3)nn2n1            TGI         > 25 µM
1  N#CC1(c2ccc(NC(=O)c3cccnc3NCc3ccncc3)cc2)CCCC1            TGI       > 74.3 µM
2                         c1ccc2c(c1)SCCCS2            TGI        > 100 µM
3              CCOC(=O)/C=C/c1nc(C#N)c(N)o1            TGI        > 100 µM
4  CCOC(=O)c1c(N2CCCC2)[nH]c(=O)c(C(c2ccc(OC)cc2)c2c(O)c(C(=O)OCC)c(N3CCCC3)[nH]c2=O)c1O            TGI        > 100 µM

Give TGI for the following compound: CCOC(=O)c1nc(C)oc1C(F)(F)F
> 100 µM

Give TGI for the following compound: O=C1c2cccc(Oc3ccccc3)c2C(=O)c2cccc(Oc3ccccc3)c21
> 100 µM

Give TGI for the following compound: CC1(C)CC(=O)C2=C(C1)C(c1ccccc1Cl)C1C(=O)CC(C)(C)CC1(O)O2 (centres undefined)
> 100 µM

Give TGI for the following compound: Nc1ncc(Cc2ccc3c(c2)OCO3)c(N)n1
> 100 µM
